Known IC50 of a selection of molecules
biological target: Glucocorticoid receptor (Canis lupus familiaris, UniProt A0A8C0QLS2); test: Antagonist activity at GR in dog PBMC assessed as reduction in dexamethasone-induced GILZ gene expression incubated for 6 hrs by RT-qPCR method; assay type: cell-based
Sequence (A0A8C0QLS2 whole entry): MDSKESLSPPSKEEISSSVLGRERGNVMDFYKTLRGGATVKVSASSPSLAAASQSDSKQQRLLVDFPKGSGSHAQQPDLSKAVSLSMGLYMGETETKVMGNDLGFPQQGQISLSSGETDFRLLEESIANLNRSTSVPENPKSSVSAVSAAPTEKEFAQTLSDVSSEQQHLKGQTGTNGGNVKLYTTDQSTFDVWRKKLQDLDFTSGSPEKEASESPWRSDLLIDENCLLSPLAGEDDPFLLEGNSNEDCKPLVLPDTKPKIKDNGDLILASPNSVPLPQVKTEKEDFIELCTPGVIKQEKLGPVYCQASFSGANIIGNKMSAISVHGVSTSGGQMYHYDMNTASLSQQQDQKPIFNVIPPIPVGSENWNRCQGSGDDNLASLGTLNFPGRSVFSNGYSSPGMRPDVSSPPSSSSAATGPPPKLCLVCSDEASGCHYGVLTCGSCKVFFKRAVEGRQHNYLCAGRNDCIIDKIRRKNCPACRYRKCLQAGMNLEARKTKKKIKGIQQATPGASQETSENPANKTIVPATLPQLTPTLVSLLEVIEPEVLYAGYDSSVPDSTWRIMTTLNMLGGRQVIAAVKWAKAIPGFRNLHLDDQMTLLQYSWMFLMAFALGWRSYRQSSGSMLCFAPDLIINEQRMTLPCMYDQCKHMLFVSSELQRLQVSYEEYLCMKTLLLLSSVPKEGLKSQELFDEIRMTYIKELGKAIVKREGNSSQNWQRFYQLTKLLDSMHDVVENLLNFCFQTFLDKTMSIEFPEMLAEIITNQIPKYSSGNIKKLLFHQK
Provide only the numeric value, understood in nM.

Ask: Could you share which IC50 value was measured for CC#C[C@]1(O)CC[C@H]2[C@@H]3CCC4=CC(=O)CCC4=C3[C@@H](c3ccc(N(C)C)cc3)C[C@@]21C ?
Result: 32.6

Ask: I would be grateful if you could share the reported IC50 for CC(C)N(C)c1ccc([C@H]2C[C@@]3(C)[C@@H](CC[C@@]3(O)C#CC(C)(C)C)[C@@H]3CCC4=CC(=O)CC[C@@H]4[C@H]32)cc1 .
Result: 34.3
